molecular target: Exopolyphosphatase PRUNE1 (Homo sapiens, UniProt Q86TP1); experiment: Inhibition of human prune assessed as reduction of cAMP-phosphodiesterase activity
Sequence (Q86TP1 whole entry): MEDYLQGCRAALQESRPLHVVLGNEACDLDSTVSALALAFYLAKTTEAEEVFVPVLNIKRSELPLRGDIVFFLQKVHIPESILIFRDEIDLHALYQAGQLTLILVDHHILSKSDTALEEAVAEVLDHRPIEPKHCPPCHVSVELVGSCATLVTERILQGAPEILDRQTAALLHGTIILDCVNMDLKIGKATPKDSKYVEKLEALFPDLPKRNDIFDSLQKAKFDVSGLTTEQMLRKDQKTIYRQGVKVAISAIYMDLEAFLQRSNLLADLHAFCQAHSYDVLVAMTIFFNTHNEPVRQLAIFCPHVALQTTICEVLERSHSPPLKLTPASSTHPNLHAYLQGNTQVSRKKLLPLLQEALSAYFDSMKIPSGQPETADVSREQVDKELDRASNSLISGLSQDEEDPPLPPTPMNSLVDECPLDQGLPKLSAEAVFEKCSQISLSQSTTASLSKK
pIC50: −log10 of the molar value.

cpd_smiles | pIC50
OCCN(CCO)c1nc(N2CCCCC2)c2nc(N(CCO)CCO)nc(N3CCCCC3)c2n1 | 6.11

Origin of measurements: ChEMBL document CHEMBL2086379
